The origin of these recorded values is PubChem BioAssay (NCI).

Test system: K-562 leukemia
ASSAY COMMENT: NCI-60 one-dose screen, 48 h (100 = growth as untreated, 0 = no growth, -100 = all killed)
APPLIED CONDITIONS: 10 µM unless noted
The panel holds about 83,000 compounds, 20% with a hit somewhere; the sample as a whole holds those more often.
OBSERVED PROPERTY: growth (%)

1. CN1CCN(Cc2ccc(NC(=O)c3cncc(C#Cc4ccc(N)nc4)c3)cc2C(F)(F)F)CC1	1.27
2. O=c1cc(N2CCOCC2)oc2c(-c3ccc4c(c3)OCCO4)csc12	25.6
3. Cc1nn(-c2ccc(Cl)cc2)c(=O)n1CCN1CCOCC1	70.1
4. O=C(c1ccccc1)N(CCCCl)C(=O)N(CCCCl)C(=O)c1ccccc1	91.1
5. C[C@]12CCc3nc(Nc4ccc(O)cc4)sc3C1=CC[C@@H]1[C@@H]2CC[C@]2(C)/C(=N/NC(N)=S)CC[C@@H]12	-2.83
6. CNC(=O)c1ccccc1Sc1ccc2c(/C=C/c3ccccn3)n[nH]c2c1	6.57
7. Brc1cccc(-n2ncc3c(Nc4ccc(-c5nnc(-c6ccccc6)o5)cc4)ncnc32)c1	110
8. Fc1[nH]nc2ccc([C@@H]3Nc4ccc5[nH]ncc5c4[C@H]4C5CCC(C5)[C@@H]34)cc12 (some centres undefined)	15.1
9. Nc1nonc1-c1nc2ccccc2n1Cc1ccc(F)cc1	10.6
